Recorded GI50 for the following compounds
- Test system: SK-MEL-28
- assay.method.text: NCI tumour cell line growth inhibition, 48 h
Activity calls are given as the source filed them. No stated cut-off is given here; in the data, active = GI50 up to about 1.1 µM and inactive = higher.
property.label: GI50

[[record]]
compound = "O=C1OCC2=C1C(c1ccc3c(c1)OCO3)c1cc3c(cc1O2)OCO3 (stereo not given)"
reported = "1.72 µM (inactive)"

[[record]]
compound = "N#Cc1nc2cc(Cl)ccc2nc1N1CCN(c2ccc([N+](=O)[O-])cc2)CC1"
reported = "> 100 µM (inactive)"

[[record]]
compound = "NC(=O)Cc1nc2c(O)ncnc2n1C1OC(CO)C(O)C1O (stereo not given)"
reported = "> 100 µM (inactive)"

[[record]]
compound = "O=CN1CCN(C(=O)c2ccc(Cl)cc2Cl)C1=S"
reported = "> 100 µM (inactive)"

[[record]]
compound = "C(=N\\OCCc1ccccc1)/c1cccnc1"
reported = "> 100 µM (inactive)"

[[record]]
compound = "NC(=O)C(=CNC(N)=S)C(N)=O"
reported = "> 100 µM (inactive)"

[[record]]
compound = "CN(C)CCCNc1nnc(NCCCN(C)C)c2c(=O)c3sccc3[nH]c12"
reported = "28.8 µM (inactive)"

[[record]]
compound = "NC(Cc1c[nH]c2ccccc12)C(=O)O (stereo not given)"
reported = "> 300 µM (inactive)"

[[record]]
compound = "O=P(c1ccccc1)(c1ccccc1)c1ccc2c(c1)OCCOCCOCCOCCO2"
reported = "> 100 µM (inactive)"

[[record]]
compound = "Cc1c(C(=O)NCCO)[n+]([O-])c2cc(Cl)ccc2[n+]1[O-]"
reported = "> 100 µM (inactive)"

[[record]]
compound = "Cc1cc(O)cc(O)c1C(=O)O[C@]1(C)C(=O)C=C2C=C(/C=C/C(=O)O)OC=C2C1=O"
reported = "> 100 µM (inactive)"

[[record]]
compound = "CCOC(=O)CCc1c(C)nc2c(C)c3c([nH]c4ccc(Cl)cc43)c(C)c2c1O"
reported = "14.1 µM (inactive)"

[[record]]
compound = "COC(=O)c1c(OC)cc2cc3c(c(O)c2c1C)C(=O)C1(O)C(=O)C=C(OC)C(OC(=O)CC(C)N)=C1C3=O (stereo not given)"
reported = "31.3 µM (inactive)"

[[record]]
compound = "CC1C(=O)N(c2ccccc2)NC12CCCc1ccccc12 (stereo not given)"
reported = "> 100 µM (inactive)"

[[record]]
compound = "CCOC(=O)C(C)(Cc1ccc(O)cn1)NC(=O)c1ccccc1 (stereo not given)"
reported = "> 100 µM (inactive)"

[[record]]
compound = "COc1cc(/C=N/n2c(C)n[nH]c2=O)cc(OC)c1OC"
reported = "> 100 µM (inactive)"

[[record]]
compound = "CN(C)c1ccc(/C=C2\\C[N+](C)(C)C/C(=C\\c3ccc(N(C)C)cc3)C2=O)cc1"
reported = "15.3 µM (inactive)"

[[record]]
compound = "CC(Oc1cc2oc(=O)cc(-c3ccccc3)c2cc1Cl)C(=O)O (stereo not given)"
reported = "> 100 µM (inactive)"

[[record]]
compound = "O=C1CCCCC/C1=C\\c1cccc(F)c1"
reported = "> 100 µM (inactive)"

[[record]]
compound = "C/C=C(/I)CBr"
reported = "21 µM (inactive)"


====

- Tested on: UO-31
- assay.method.text: NCI tumour cell line growth inhibition, 48 h
Activity calls are given as the source filed them. Cut-off read from the data, not from the text of the source: active = GI50 up to about 1.1 µM and inactive = higher.
GI50 for assorted molecules
property.label: GI50

[[record]]
molecule = "O=[N+]([O-])c1ccc(/N=N\\c2c(O)c(S(=O)(=O)O)cc3cc(S(=O)(=O)O)ccc23)cc1"
reported = "> 100 µM (inactive)"

[[record]]
molecule = "COc1ccc(/C=C/C(=O)c2c(-c3ccccc3)nn(C)c(=O)c2N2CC2C)cc1 (stereo not drawn)"
reported = "70.3 µM (inactive)"

[[record]]
molecule = "COc1ccc(C(OCC2OC3(COC(c4ccccc4)(c4ccc(OC)cc4)c4ccc(OC)cc4)C(Oc4nc(=O)ccn43)C2O)(c2ccccc2)c2ccc(OC)cc2)cc1 (stereo not drawn)"
reported = "> 100 µM (inactive)"


====

- Tested on: HCC 2998
- assay.method.text: NCI tumour cell line growth inhibition, 48 h
Activity calls are given as the source filed them. Cut-off read from the data, not from the text of the source: active = GI50 up to about 1.1 µM and inactive = higher.
property.label: GI50

[[record]]
compound = "C=C(C)[C@@]1(O)CCCC[C@@H]1CC(Sc1ccccc1)Sc1ccccc1"
subject_of_test = "HCC 2998"
property_label = "GI50"
reported = "16.5 µM (inactive)"

[[record]]
compound = "C#CC(C)(C)OC(=O)C(=[N+]=[N-])C(C)=O"
subject_of_test = "HCC 2998"
property_label = "GI50"
reported = "> 10 µM (inactive)"

[[record]]
compound = "O=C1c2cccnc2-c2nccc3c2c1nc1cc(Br)ccc13"
subject_of_test = "HCC 2998"
property_label = "GI50"
reported = "0.406 µM (active)"

[[record]]
compound = "COc1cc([C@@H]2c3cc4c(cc3[C@@H](c3c(O)cc(O)c5c3O[C@H](c3ccc(O)c(O)c3)[C@@H](O)C5)[C@H]3COC(=O)[C@H]23)OCO4)cc(OC)c1O"
subject_of_test = "HCC 2998"
property_label = "GI50"
reported = "> 100 µM (inactive)"

[[record]]
compound = "O=P(c1ccccc1)(c1ccccc1)c1ccc2c(c1)OCCOCCOCCOCCO2"
subject_of_test = "HCC 2998"
property_label = "GI50"
reported = "> 100 µM (inactive)"

[[record]]
compound = "NS(=O)(=O)c1cc2c(cc1Cl)NC(C(=O)c1cc(=O)c3ccc(O)cc3o1)=NS2(=O)=O"
subject_of_test = "HCC 2998"
property_label = "GI50"
reported = "> 100 µM (inactive)"

[[record]]
compound = "CC1CN=C(N(C(=O)Nc2ccccc2)c2ccccc2)S1 (stereo unspecified)"
subject_of_test = "HCC 2998"
property_label = "GI50"
reported = "35.9 µM (inactive)"

[[record]]
compound = "Cc1cc(S(=O)(=O)/N=C2\\NCCN2Cc2ccccc2)c(S)cc1Cl"
subject_of_test = "HCC 2998"
property_label = "GI50"
reported = "> 100 µM (inactive)"

[[record]]
compound = "CSCSCC(CO)NC(=O)/C=C/c1c(C)nc(O)nc1O (stereo unspecified)"
subject_of_test = "HCC 2998"
property_label = "GI50"
reported = "> 100 µM (inactive)"

[[record]]
compound = "CCC1(OC(=O)CN)C(=O)OCc2c1cc1n(c2=O)Cc2cc3ccccc3nc2-1 (stereo unspecified)"
subject_of_test = "HCC 2998"
property_label = "GI50"
reported = "0.0664 µM (active)"

[[record]]
compound = "Cc1nc(SCC(N)=O)c2sc(=S)n(-c3ccccc3)c2n1"
subject_of_test = "HCC 2998"
property_label = "GI50"
reported = "> 10 µM (inactive)"

[[record]]
compound = "COc1ccc(/C=C(/C)[N+](=O)[O-])cc1"
subject_of_test = "HCC 2998"
property_label = "GI50"
reported = "1.77 µM (inactive)"

[[record]]
compound = "c1ccc2c(c1)CCc1c-2n(CCN2CCCCC2)c2ccccc12"
subject_of_test = "HCC 2998"
property_label = "GI50"
reported = "13.1 µM (inactive)"

[[record]]
compound = "COC(=O)c1c(C)[nH]c2c1C(=O)C(=O)c1nc(C)c(C)nc1-2"
subject_of_test = "HCC 2998"
property_label = "GI50"
reported = "8.85 µM (inactive)"

[[record]]
compound = "CCCCCCCCCCCOCCC1C(C(C)OCCN2CCCC2)OC2OC(C)(C)OC21 (stereo unspecified)"
subject_of_test = "HCC 2998"
property_label = "GI50"
reported = "1.69 µM (inactive)"

[[record]]
compound = "O=C(CSc1nc2ccc(I)cc2c(=O)n1Cc1ccccc1)NN1C(=O)CCC1=O"
subject_of_test = "HCC 2998"
property_label = "GI50"
reported = "77.4 µM (inactive)"

[[record]]
compound = "Cc1ccc(S(=O)(=O)N/N=C(\\c2nc3ccc([N+](=O)[O-])cc3[nH]c2=O)C(O)c2ccc([N+](=O)[O-])cc2)cc1 (stereo unspecified)"
subject_of_test = "HCC 2998"
property_label = "GI50"
reported = "28.2 µM (inactive)"

[[record]]
compound = "COC(C)(C)C(O)C(O)C[C@H](C)C1CC=C2C1(C)CCC1[C@@]3(C)CCC(OC(C)=O)C(C)(C)C3CC(OC3OC(COC(C)=O)C(O)C(O)C3O)[C@@]21C (stereo partly specified)"
subject_of_test = "HCC 2998"
property_label = "GI50"
reported = "2.14 µM (inactive)"

[[record]]
compound = "C=C1C(=O)O[C@H]2C[C@@]3(C)[C@H](O)CCC(=C)[C@@H]3[C@@H](OC(C)=O)[C@H]12"
subject_of_test = "HCC 2998"
property_label = "GI50"
reported = "15.1 µM (inactive)"

[[record]]
compound = "Cn1ncc2cc3c(Nc4ccc(Cl)cc4)cccc3nc21"
subject_of_test = "HCC 2998"
property_label = "GI50"
reported = "21 µM (inactive)"

[[record]]
compound = "O=C(O)c1ccc(NCc2nc3cc4ccccc4cc3[nH]2)cc1"
subject_of_test = "HCC 2998"
property_label = "GI50"
reported = "87.9 µM (inactive)"

[[record]]
compound = "O=C(/C=C1\\Nc2ccccc2N\\C1=C\\C(=O)c1ccc(Cl)cc1)c1ccccc1"
subject_of_test = "HCC 2998"
property_label = "GI50"
reported = "74.8 µM (inactive)"

[[record]]
compound = "O=C1CC(=O)N(CCc2ccccc2)S(=O)(=O)N1CCc1ccccc1"
subject_of_test = "HCC 2998"
property_label = "GI50"
reported = "86.9 µM (inactive)"

[[record]]
compound = "CC(=C(C(=O)O)C(=O)O)c1cc(-c2cccs2)cc(-c2ccc(Cl)cc2)c1O"
subject_of_test = "HCC 2998"
property_label = "GI50"
reported = "18.5 µM (inactive)"

[[record]]
compound = "COc1ccccc1C(=O)NCC1CCCN2CCCCC12 (stereo unspecified)"
subject_of_test = "HCC 2998"
property_label = "GI50"
reported = "> 100 µM (inactive)"

[[record]]
compound = "N#Cc1nc2cc(Cl)ccc2nc1N1CCN(c2ccc([N+](=O)[O-])cc2)CC1"
subject_of_test = "HCC 2998"
property_label = "GI50"
reported = "18.9 µM (inactive)"

[[record]]
compound = "NC(=O)Cc1nc2c(O)ncnc2n1C1OC(CO)C(O)C1O (stereo unspecified)"
subject_of_test = "HCC 2998"
property_label = "GI50"
reported = "> 100 µM (inactive)"

[[record]]
compound = "CN1C(c2ccccc2)CS(=O)(=O)CS1(=O)=O (stereo unspecified)"
subject_of_test = "HCC 2998"
property_label = "GI50"
reported = "> 100 µM (inactive)"

[[record]]
compound = "O=C(O)CCC(O)=C1S(=O)(=O)OCCOS1(=O)=O"
subject_of_test = "HCC 2998"
property_label = "GI50"
reported = "> 100 µM (inactive)"

[[record]]
compound = "c1ccc([P+](CC[P+](c2ccccc2)(c2ccccc2)c2ccccc2)(c2ccccc2)c2ccccc2)cc1"
subject_of_test = "HCC 2998"
property_label = "GI50"
reported = "7.78 µM (inactive)"

[[record]]
compound = "CCOC(=O)C(Oc1ccc(OC)c2c1C(=O)CCC2)c1ccccc1 (stereo unspecified)"
subject_of_test = "HCC 2998"
property_label = "GI50"
reported = "> 100 µM (inactive)"

